Hello, the source for this data is the supplement of paper PMC9233669, in case you need it.

- System: biotinyl-Trp-oxazolone
- protocol notes: self-aminoacylation, catalytic enhancement (BWO) (fold over background); higher = more active; k-Seq, kA / k0A0; sequences stand for … in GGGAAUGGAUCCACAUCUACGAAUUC…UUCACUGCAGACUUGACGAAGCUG
This sample holds only a part of the variants without activity.
quantity kind: self-aminoacylation

# chain sequence, system, obs value
measured = [
    ("AACUUUGCUAAUAUUCGCAAG [Fam3.1 aminoacylation ribozyme variant]", "biotinyl-Trp-oxazolone", 1.75),
    ("AUUAACCUAGUUCAUCGGGUG [Fam2.2 aminoacylation ribozyme variant]", "biotinyl-Trp-oxazolone", 2.54),
    ("UUACUUCAAACAAUCGGUUUG [Fam1A.1 aminoacylation ribozyme variant]", "biotinyl-Trp-oxazolone", 20.3),
    ("CUACAUCAAACAACCGGUCUG [Fam1A.1 aminoacylation ribozyme variant]", "biotinyl-Trp-oxazolone", 1.47),
    ("CCUAACUUCAAGCAAUCGGUC [Fam1B.1 aminoacylation ribozyme variant]", "biotinyl-Trp-oxazolone", 19.9),
    ("CUACUGUAAACAAUCGGUCUG [Fam1A.1 aminoacylation ribozyme variant]", "biotinyl-Trp-oxazolone", 0.53),
    ("AUUGCCCUGGUCAUCGAGUGC [Fam2.1 aminoacylation ribozyme variant]", "biotinyl-Trp-oxazolone", 4.08),
    ("AUUGACCUAGGUCGUCGGGUG [Fam2.2 aminoacylation ribozyme variant]", "biotinyl-Trp-oxazolone", 2.2),
    ("AUUACCCUGGUCGUCGAGUGC [Fam2.1 aminoacylation ribozyme variant]", "biotinyl-Trp-oxazolone", 0.43),
    ("AUUAACAUGGUCAUCGAGUGA [Fam2.1 aminoacylation ribozyme variant]", "biotinyl-Trp-oxazolone", 8.43),
    ("AUUCACCUUGGUCAUCUGGUG [Fam2.2 aminoacylation ribozyme variant]", "biotinyl-Trp-oxazolone", 2.75),
    ("AUAACCCAGGUCAUCGAGUGA [Fam2.1 aminoacylation ribozyme variant]", "biotinyl-Trp-oxazolone", 6.13),
    ("AUUACCCUGGGCAUCGAAUGA [Fam2.1 aminoacylation ribozyme variant]", "biotinyl-Trp-oxazolone", 2.01),
    ("UAGUUUGCUAAUAGUCGUAAG [Fam3.1 aminoacylation ribozyme variant]", "biotinyl-Trp-oxazolone", 4.18),
    ("AGUCACCUAGGGCAUCGGGUG [Fam2.2 aminoacylation ribozyme variant]", "biotinyl-Trp-oxazolone", 6.69),
    ("AUUACUCUGGUCGUCGAGUGA [Fam2.1 aminoacylation ribozyme variant]", "biotinyl-Trp-oxazolone", 0.657),
    ("AUCACCCUGGUCAUCGAGUUA [Fam2.1 aminoacylation ribozyme variant]", "biotinyl-Trp-oxazolone", 2.62),
    ("CUACUUCAGACAAUCGGUGUG [Fam1A.1 aminoacylation ribozyme variant]", "biotinyl-Trp-oxazolone", 1.7),
    ("AUUACCCGGGUCAUCGAGUGA [Fam2.1 aminoacylation ribozyme variant]", "biotinyl-Trp-oxazolone", 7.86),
    ("AAGAUUGCUAAUAGUCGCAAU [Fam3.1 aminoacylation ribozyme variant]", "biotinyl-Trp-oxazolone", 1.14),
    ("AUGAACCUAGGUCAUCGGGUG [Fam2.2 aminoacylation ribozyme variant]", "biotinyl-Trp-oxazolone", 6.44),
    ("CUGCUUCAAACAAUAGGUCUG [Fam1A.1 aminoacylation ribozyme variant]", "biotinyl-Trp-oxazolone", 0.575),
    ("GUACUUCAAACAAUCGGUCCG [Fam1A.1 aminoacylation ribozyme variant]", "biotinyl-Trp-oxazolone", 3.6),
    ("CUACUUCAAACAUUCGGUCUG [Fam1A.1 aminoacylation ribozyme variant]", "biotinyl-Trp-oxazolone", 0.904),
    ("CUACUUCAAACAAUCGCUCUC [Fam1A.1 aminoacylation ribozyme variant]", "biotinyl-Trp-oxazolone", 1.2),
    ("CUACUUCAAAUAAGCGGUCUG [Fam1A.1 aminoacylation ribozyme variant]", "biotinyl-Trp-oxazolone", 0.575),
    ("CCACACUUCAACCAAUCCGUC [Fam1B.1 aminoacylation ribozyme variant]", "biotinyl-Trp-oxazolone", 0.919),
    ("AUUCACCUCGGUCUUCGGGUG [Fam2.2 aminoacylation ribozyme variant]", "biotinyl-Trp-oxazolone", 4.87),
    ("AUUACCCCGGUCAUCGAGUUA [Fam2.1 aminoacylation ribozyme variant]", "biotinyl-Trp-oxazolone", 1.01),
    ("AGUACCCUGGUCAUCGGGUGA [Fam2.1 aminoacylation ribozyme variant]", "biotinyl-Trp-oxazolone", 19.6),
    ("AUUACCCUGGUCUUCUAGUGA [Fam2.1 aminoacylation ribozyme variant]", "biotinyl-Trp-oxazolone", 7.45),
    ("CCACACAUCAAGGAAUCGGUC [Fam1B.1 aminoacylation ribozyme variant]", "biotinyl-Trp-oxazolone", 0.926),
    ("AAGUUUGCCAAUAGUCACAAG [Fam3.1 aminoacylation ribozyme variant]", "biotinyl-Trp-oxazolone", 1.04),
    ("AAUGCCCUGGUCAUCGAGUGA [Fam2.1 aminoacylation ribozyme variant]", "biotinyl-Trp-oxazolone", 11.8),
    ("AUGACCCUGGUAAUCGAGUGA [Fam2.1 aminoacylation ribozyme variant]", "biotinyl-Trp-oxazolone", 6.37),
]

====

Let's look at some sequences and their measured self-aminoacylation.
- Tested on: biotinyl-Leu-oxazolone
- protocol notes: self-aminoacylation, catalytic enhancement (BLO) (fold over background); higher = more active; k-Seq, kA / k0A0; sequences stand for … in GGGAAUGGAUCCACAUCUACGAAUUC…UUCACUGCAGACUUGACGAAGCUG
This sample holds only a part of the variants without activity.
quantity kind: self-aminoacylation

# chain sequence, quantity kind, obs value
data = [
    ("ACUCACCUAAGUCAUCGGGUG [Fam2.2 aminoacylation ribozyme variant]", "self-aminoacylation", 10.5),
    ("AUUAGCCUGGACAUCGAGUGA [Fam2.1 aminoacylation ribozyme variant]", "self-aminoacylation", 9.56),
    ("AAGUUUGCUAAGAGUCGCAAG [Fam3.1 aminoacylation ribozyme variant]", "self-aminoacylation", 0.661),
    ("CUAAUUAAAACAAUCGGUCUG [Fam1A.1 aminoacylation ribozyme variant]", "self-aminoacylation", 0.782),
    ("CCACACUUAAAGCAAUAGGUC [Fam1B.1 aminoacylation ribozyme variant]", "self-aminoacylation", 0.662),
    ("AAGAUUGCUAAUAGUCGCGAG [Fam3.1 aminoacylation ribozyme variant]", "self-aminoacylation", 1.1),
    ("AGUCAACUAGGUCAUCGGGUG [Fam2.2 aminoacylation ribozyme variant]", "self-aminoacylation", 8.39),
    ("AAGUCUGCUAAUAGUCUCAAG [Fam3.1 aminoacylation ribozyme variant]", "self-aminoacylation", 1.43),
    ("AAGUUUGCUAAUCGUCGCGAG [Fam3.1 aminoacylation ribozyme variant]", "self-aminoacylation", 1.36),
]

====

Let's look at some sequences and their measured self-aminoacylation.
- Test system: biotinyl-Trp-oxazolone
- protocol notes: self-aminoacylation, catalytic enhancement (BWO) (fold over background); higher = more active; k-Seq, kA / k0A0; sequences stand for … in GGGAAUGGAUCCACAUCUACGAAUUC…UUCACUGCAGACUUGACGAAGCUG
This sample holds only a part of the variants without activity.
quantity kind: self-aminoacylation

# chain sequence, quantity kind, obs value
records = [
    ("UAGUUUGCUAAUAGUCGCAAA [Fam3.1 aminoacylation ribozyme variant]", "self-aminoacylation", 2.06),
    ("CCACACUUCCAGAAAUCGGUC [Fam1B.1 aminoacylation ribozyme variant]", "self-aminoacylation", 0.976),
    ("AUUUACCUAGUUCAUCGGGUG [Fam2.2 aminoacylation ribozyme variant]", "self-aminoacylation", 2.25),
    ("AAGUUUGCUAAGAGUCGCAAG [Fam3.1 aminoacylation ribozyme variant]", "self-aminoacylation", 1.39),
    ("CCAUACUUCAAGAAAUCGGUC [Fam1B.1 aminoacylation ribozyme variant]", "self-aminoacylation", 4.39),
    ("AUUACCGUGGUCAUCUAGUGA [Fam2.1 aminoacylation ribozyme variant]", "self-aminoacylation", 7.82),
    ("AUUCUCCUAGGUAAUCGGGUG [Fam2.2 aminoacylation ribozyme variant]", "self-aminoacylation", 4.29),
    ("AAGUUUGCUAAUUGUGGCAAG [Fam3.1 aminoacylation ribozyme variant]", "self-aminoacylation", 0.773),
    ("UUUCACCUAGGUCAGCGGGUG [Fam2.2 aminoacylation ribozyme variant]", "self-aminoacylation", 5.12),
    ("CUACUUCAAACAAUUAGUCUG [Fam1A.1 aminoacylation ribozyme variant]", "self-aminoacylation", 0.684),
    ("GUUCACCUAUGUCAUCGGGUG [Fam2.2 aminoacylation ribozyme variant]", "self-aminoacylation", 4.3),
    ("AAGUUACCUAAUAGUCGCAAG [Fam3.1 aminoacylation ribozyme variant]", "self-aminoacylation", 1.74),
    ("CCACUCUUCAAGCAGUCGGUC [Fam1B.1 aminoacylation ribozyme variant]", "self-aminoacylation", 1.28),
    ("AGUACCCUGGUCUUCGAGUGA [Fam2.1 aminoacylation ribozyme variant]", "self-aminoacylation", 7.11),
    ("CCACACUUCAGCCAAUCGGUC [Fam1B.1 aminoacylation ribozyme variant]", "self-aminoacylation", 2.11),
    ("AUUAUCCUGGUCAUCGUGUGA [Fam2.1 aminoacylation ribozyme variant]", "self-aminoacylation", 5.91),
    ("AUUACCGUGGUCAUAGAGUGA [Fam2.1 aminoacylation ribozyme variant]", "self-aminoacylation", 7.99),
    ("AAGUUUGCUAAAAGUCUCAAG [Fam3.1 aminoacylation ribozyme variant]", "self-aminoacylation", 1.45),
]
